assay-info: UWB1.289_BRCA1 ovarian cancer growth, cell-based, BGB or cisplatin combinations (AID 1671459)
condition-set: UWB1.289 BRCA1 ovarian carcinoma, drug combinations, at 0.5 µM, hits give high values
attribute-measured: inhibition (%)
The response must be a number in % with no trailing unit.

Exam item: Would you kindly share the measured inhibition for CN[C@@H]1CN(c2ccc3c(=O)c(C(=O)O)cn(-c4nccs4)c3n2)C[C@H]1OC ?
Marked response: 13.7

Exam item: Continue with COc1cc2ncnc(-n3nc(-c4ccccn4)nc3N)c2cc1OC
Marked response: -15.7

Exam item: # repeat for Cc1ccc([N+](=O)[O-])cc1S(=O)(=O)N(C)/N=C/c1cnc2ccc(Br)cn12
Marked response: 73.9

Exam item: Same again, this time with COc1cc(C=O)c([N+](=O)[O-])cc1OC
Marked response: -4.66

Exam item: Item: COc1ccc(-n2c(SCCCN3C(=O)c4cccc5cccc(c45)C3=O)nnc2-c2ccncc2)cc1
Marked response: 1.18

Exam item: Ok, now CN(C)C/C=C/C(=O)Nc1ccc(C(=O)Nc2cccc(Nc3ncc(Cl)c(-c4c[nH]c5ccccc45)n3)c2)cc1
Marked response: 84.7

Exam item: Note, next up: CN(C)Cc1c(C(=O)NCCOc2ccc(C(=O)NO)cc2)oc2ccccc12
Marked response: 59.3

Exam item: Follow-up entry: CN(C)CCN1C(=O)c2cccc3cc(N)cc(c23)C1=O
Marked response: -2.87

Exam item: Thanks! And Nc1ccccc1NC(=O)c1ccc(CNc2nccc(-c3cccnc3)n2)cc1 ?
Marked response: 29.1

Exam item: What do you get for O=C(/C=C/c1cccc(S(=O)(=O)Nc2ccccc2)c1)NO ?
Marked response: 41.8

====

assay-info: growth inhibition of DIPG cells – cell-based, MIPE5.0 library, qHTS (AID 1347068);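 as to IC50: cells exposed to compound for 48 hours before viability readout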
condition-set: SU-DIPG-XXV viability
Inconclusive results are not listed. The source made the active and inactive calls. No cut-off is given here; in the data, nearly all actives have IC50 up to about 30 µM.
Choose the fitting class; nothing outside T (active), F (inactive) is accepted.

{"molecule": "Fc1cc(-c2cccc3ncc(-c4cnn(C5CCNCC5)c4)nc23)cc(F)c1CN1CCOCC1", "assigned-category": "T"}
{"molecule": "N#Cc1ccnc(N2C(=O)CC[C@H]2C(=O)N(c2cncc(F)c2)C(C(=O)NC2CC(F)(F)C2)c2ccccc2Cl)c1 (some centres undefined)", "assigned-category": "F"}
{"molecule": "C=CC(=O)Nc1cccc(Nc2nc(Nc3ccc(OCCOC)cc3)ncc2F)c1", "assigned-category": "T"}

Please examine the following record next.
Exam item: Per the records of this test, what outcome belongs to CC(C)[C@H]1C(=O)N[C@@H](CCCN=C(N)N)C(=O)NCC(=O)N[C@@H](CC(=O)O)C(=O)N[C@H](Cc2ccccc2)C(=O)N1C ?
Marked response: F

====

This section presents compounds with their documented viability values.
assay-info: drug combination growth inhibition, ovarian cancer – cell-based, oncology-focused library, rucaparib conditional, profiling panel (AID 1508598)
condition-set: patient-derived ovarian cancer cells, CellTiter-Glo viability, 144 h; at 0.000305 µM; OCI-P5x cells; with rucaparib 20 µM; hits give low values; 100% = cells with rucaparib alone
State just the number; it will be interpreted in %.

{"compound": "COC(=O)c1ccc2c(C(=Nc3ccc(N(C)C(=O)CN4CCN(C)CC4)cc3)c3ccccc3)c(O)[nH]c2c1", "val": 103}

Exam item: Bench note: what viability did CCCS(=O)(=O)Nc1ccc(F)c(C(=O)c2c[nH]c3ncc(-c4ccc(Cl)cc4)cc23)c1F show?
Marked response: 95.6

Exam item: Then this compound: CCOc1ccn(-c2ccc(F)cc2)c(=O)c1C(=O)Nc1ccc(Oc2ccnc(N)c2Cl)c(F)c1
Marked response: 109

Exam item: Queued: CC(/C=C/C(=O)NO)=C\[C@@H](C)C(=O)c1ccc(N(C)C)cc1
Marked response: 77.4

Exam item: Item: O=C(O)CCC1CCC(c2cc(F)ccc2F)(S(=O)(=O)c2ccc(Cl)cc2)CC1 (centres undefined)
Marked response: 110

Exam item: Okay, and CC(C)CC(=O)Nc1n[nH]c2c1CN(C(=O)C1CCN(C)CC1)C2(C)C ?
Marked response: 101

Exam item: Then COc1ccc(-c2ccc3c(N4CCOCC4)nc(N4C[C@@H](C)O[C@@H](C)C4)nc3n2)cc1CO ?
Marked response: 105

Exam item: // repeat for C#Cc1cccc(Nc2ncnc3cc(OC)c(OCCCCCCC(=O)NO)cc23)c1 and report
Marked response: 108

Exam item: Repeat with c1ccc2c(CCNc3ccc(Nc4ccncc4)cc3)c[nH]c2c1
Marked response: 114

Exam item: What do we get for Cc1cnc(-c2ccccc2C(C)C)nc1NCc1ccc(-n2ccnn2)cc1 ?
Marked response: 101
